Origin of the recorded values: patent US4725578A

- Tested on: MM2
- measurement_protocol: MM2 (ip-ip), survival T/C
- Assay type: in vivo, mice
- applied_conditions: Table 7, dose 2 mg/kg
quantity_name: MM2 (i.P. - i.P.) T/C (%)
Answers are plain numbers, in %.

Here's what some known entries look like.
| compound | MM2 (i.P. - i.P.) T/C (%) |
| --- | --- |
| CCCCCC(=O)Oc1ccc2cc1Oc1ccc(cc1)CC1C(=O)N(C)C(C2)C(=O)NC(C)C(=O)NC(C)C(=O)N(C)C(Cc2ccc(OC)cc2)C(=O)NC(C)C(=O)N1C (stereo not shown) [Ex. 21, caproate of TPC-A] | 127.3 |
| CCCCCCOc1ccc2cc1Oc1ccc(cc1)CC1C(=O)N(C)C(C2)C(=O)NC(C)C(=O)NC(C)C(=O)N(C)C(Cc2ccc(OC)cc2)C(=O)NC(C)C(=O)N1C (stereo not shown) | 129.3 |
| COc1ccc(C[C@H]2C(=O)N[C@@H](C)C(=O)N(C)[C@H]3Cc4ccc(cc4)Oc4cc(ccc4OC)C[C@@H](C(=O)N[C@H](C)C(=O)N[C@@H](C)C(=O)N2C)N(C)C3=O)cc1 | 118.4 |

Attention now shifts to the item below.
Req: # input compound: COc1ccc(CC2C(=O)NC(C)C(=O)N(C)C3Cc4ccc(cc4)Oc4cc(ccc4OC(C)=O)CC(C(=O)NC(C)C(=O)NC(C)C(=O)N2C)N(C)C3=O)cc1 (stereo not shown) ; wanted: its MM2 (i.P. - i.P.) T/C (%)
Resp: 109.2

---

- Tested on: P-388 cells
- measurement_protocol: Antineoplastic action against implanted P-388 cells (ip-ip), survival T/C
- Assay type: in vivo, CDFl mice
- applied_conditions: Table 6, P388, intraperitoneal, dose 0.05 mg/kg
quantity_name: T/C % (Treatment/Control %)
Numbers only, in %.

| compound | test_value |
| --- | --- |
| CCCCCCOc1ccc2cc1Oc1ccc(cc1)CC1C(=O)N(C)C(C2)C(=O)NC(C)C(=O)NC(C)C(=O)N(C)C(Cc2ccc(OC)cc2)C(=O)NC(C)C(=O)N1C (centres unmarked) | 110.3 |

The following compounds each have a reported value; give each one's T/C % (Treatment/Control %).
1. CCC=CCC(=O)Oc1ccc2cc1Oc1ccc(cc1)CC1C(=O)N(C)C(C2)C(=O)NC(C)C(=O)NC(C)C(=O)N(C)C(Cc2ccc(OC)cc2)C(=O)NC(C)C(=O)N1C (centres unmarked)
2. CCCCC(=O)Oc1ccc2cc1Oc1ccc(cc1)CC1C(=O)N(C)C(C2)C(=O)NC(C)C(=O)NC(C)C(=O)N(C)C(Cc2ccc(OC)cc2)C(=O)NC(C)C(=O)N1C (centres unmarked)
3. CCCCCCCCCOc1ccc2cc1Oc1ccc(cc1)CC1C(=O)N(C)C(C2)C(=O)NC(C)C(=O)NC(C)C(=O)N(C)C(Cc2ccc(OC)cc2)C(=O)NC(C)C(=O)N1C (centres unmarked)
4. COc1ccc(CC2C(=O)NC(C)C(=O)N(C)C3Cc4ccc(cc4)Oc4cc(ccc4OC4CCCCO4)CC(C(=O)NC(C)C(=O)NC(C)C(=O)N2C)N(C)C3=O)cc1 (centres unmarked) [Ex. 20, tetrahydropyranylether of TPC-A]
5. CCOc1ccc2cc1Oc1ccc(cc1)CC1C(=O)N(C)C(C2)C(=O)NC(C)C(=O)NC(C)C(=O)N(C)C(Cc2ccc(OC)cc2)C(=O)NC(C)C(=O)N1C (centres unmarked)
6. CCCCCCCOc1ccc2cc1Oc1ccc(cc1)CC1C(=O)N(C)C(C2)C(=O)NC(C)C(=O)NC(C)C(=O)N(C)C(Cc2ccc(OC)cc2)C(=O)NC(C)C(=O)N1C (centres unmarked)

Resp:
1: 121.7; 2: 117.9; 3: 112.5; 4: 138.4; 5: 137.3; 6: 115.8

---

- Test system: P-388 cells
- measurement_protocol: Antineoplastic action against implanted P-388 cells (ip-ip), survival T/C
- Assay type: in vivo, CDFl mice
- applied_conditions: Table 6, P388, intraperitoneal, dose 0.5 mg/kg
quantity_name: T/C % (Treatment/Control %)
Numbers only, in %.

Here's what some known entries look like.
| compound | quantity_name | readout_units | test_value |
| --- | --- | --- | --- |
| CCC=CCC(=O)Oc1ccc2cc1Oc1ccc(cc1)CC1C(=O)N(C)C(C2)C(=O)NC(C)C(=O)NC(C)C(=O)N(C)C(Cc2ccc(OC)cc2)C(=O)NC(C)C(=O)N1C (centres unmarked) | T/C % (Treatment/Control %) | % | 145.0 |
| CCCC(C)C(=O)Oc1ccc2cc1Oc1ccc(cc1)CC1C(=O)N(C)C(C2)C(=O)NC(C)C(=O)NC(C)C(=O)N(C)C(Cc2ccc(OC)cc2)C(=O)NC(C)C(=O)N1C (centres unmarked) | T/C % (Treatment/Control %) | % | 142.0 |
| CCCCCCCCOc1ccc2cc1Oc1ccc(cc1)CC1C(=O)N(C)C(C2)C(=O)NC(C)C(=O)NC(C)C(=O)N(C)C(Cc2ccc(OC)cc2)C(=O)NC(C)C(=O)N1C (centres unmarked) | T/C % (Treatment/Control %) | % | 146.8 |

The following compounds each have a reported value; give each one's T/C % (Treatment/Control %).
1. CCC(C)CC(=O)Oc1ccc2cc1Oc1ccc(cc1)CC1C(=O)N(C)C(C2)C(=O)NC(C)C(=O)NC(C)C(=O)N(C)C(Cc2ccc(OC)cc2)C(=O)NC(C)C(=O)N1C (centres unmarked)
2. COc1ccc(CC2C(=O)NC(C)C(=O)N(C)C3Cc4ccc(cc4)Oc4cc(ccc4OC(C)=O)CC(C(=O)NC(C)C(=O)NC(C)C(=O)N2C)N(C)C3=O)cc1 (centres unmarked)

Resp:
140.0
155.6

---

- Test system: P-388 cells
- measurement_protocol: Antineoplastic action against implanted P-388 cells (ip-ip), survival T/C
- Assay type: in vivo, CDFl mice
- applied_conditions: Table 6, P388, intraperitoneal, dose 0.05 mg/kg
Exercise: for every item that follows, state its recorded T/C % (Treatment/Control %).
Quote the value and follow it with the unit of measurement.

Here's what some known entries look like.
| compound | T/C % (Treatment/Control %) |
| --- | --- |
| COc1ccc(CC2C(=O)NC(C)C(=O)N(C)C3Cc4ccc(cc4)Oc4cc(ccc4OC(C)=O)CC(C(=O)NC(C)C(=O)NC(C)C(=O)N2C)N(C)C3=O)cc1 (stereo not shown) | 133.3% |
| COc1ccc(CC2C(=O)NC(C)C(=O)N(C)C3Cc4ccc(cc4)Oc4cc(ccc4OC(=O)C(C)C)CC(C(=O)NC(C)C(=O)NC(C)C(=O)N2C)N(C)C3=O)cc1 (stereo not shown) | 124.1% |
| CCCCCCCCOc1ccc2cc1Oc1ccc(cc1)CC1C(=O)N(C)C(C2)C(=O)NC(C)C(=O)NC(C)C(=O)N(C)C(Cc2ccc(OC)cc2)C(=O)NC(C)C(=O)N1C (stereo not shown) | 136.1% |

Attention now shifts to the item below.
Req: # input compound: CCCC=CC(=O)Oc1ccc2cc1Oc1ccc(cc1)CC1C(=O)N(C)C(C2)C(=O)NC(C)C(=O)NC(C)C(=O)N(C)C(Cc2ccc(OC)cc2)C(=O)NC(C)C(=O)N1C (stereo not shown) ; wanted: its T/C % (Treatment/Control %)
Resp: 116.6%
